target: Steroid 17-alpha-hydroxylase/17,20 lyase (Homo sapiens); assay: Inhibition of human CYP17 expressed in Escherichia coli co-expressed with NADPH-P450 reductase at 2 uM
Sequence (P05093 whole entry): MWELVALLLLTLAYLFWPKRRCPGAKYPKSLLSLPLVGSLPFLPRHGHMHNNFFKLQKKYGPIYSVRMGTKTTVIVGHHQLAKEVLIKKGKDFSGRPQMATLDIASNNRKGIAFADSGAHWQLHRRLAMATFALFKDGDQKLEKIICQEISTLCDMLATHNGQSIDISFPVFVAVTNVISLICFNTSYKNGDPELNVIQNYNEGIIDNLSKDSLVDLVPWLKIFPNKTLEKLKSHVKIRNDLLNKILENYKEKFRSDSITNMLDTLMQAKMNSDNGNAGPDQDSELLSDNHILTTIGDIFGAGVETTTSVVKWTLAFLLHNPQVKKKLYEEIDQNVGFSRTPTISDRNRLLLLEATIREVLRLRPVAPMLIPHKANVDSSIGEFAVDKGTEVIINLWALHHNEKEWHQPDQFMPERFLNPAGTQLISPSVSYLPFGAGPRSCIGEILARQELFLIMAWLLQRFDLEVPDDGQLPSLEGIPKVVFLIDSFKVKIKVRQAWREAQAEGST
PROPERTY: inhibition at 2 µM (%)

Would you please look over these solved cases?
[[record]]
molecule = "c1cn(Cc2ccc(-c3ccoc3)cc2)cn1"
property = "inhibition at 2 µM"
unit_name = "%"
numeric_result = 29

[[record]]
molecule = "Fc1ccc(-c2csc(Cn3ccnc3)c2)cc1F"
property = "inhibition at 2 µM"
unit_name = "%"
numeric_result = 25

[[record]]
molecule = "Cc1cscc1-c1ccc(Cn2ccnc2)cc1"
property = "inhibition at 2 µM"
unit_name = "%"
numeric_result = 27

[[record]]
molecule = "COc1ccc(-c2csc(Cn3ccnc3)c2)cc1OC"
property = "inhibition at 2 µM"
unit_name = "%"
numeric_result = 14

[[record]]
molecule = "CCC(c1ccc(-c2ccsc2Cl)cc1)n1ccnc1 (stereo not drawn)"
property = "inhibition at 2 µM"
unit_name = "%"
numeric_result = 85

[[record]]
molecule = "CC(c1ccc(-c2ccsc2)cc1)n1ccnc1 (stereo not drawn)"
property = "inhibition at 2 µM"
unit_name = "%"
numeric_result = 67


[I] Fc1ccc(-c2ccc(Cn3ccnc3)nc2)cc1
[II] Fc1ccc(-c2ccc(Cn3ccnc3)cn2)cc1F
[III] c1ccc(-c2csc(Cn3ccnc3)c2)cc1
Q) Order these by inhibition at 2 µM, descending, and give the full ranking. Answer with the labels in sequence, matching the requested order.
A) III, I, II
(III: 21%, I: 2%, II: 0%)
